measurementNotes: qHTS of pediatric cancer cell lines to identify multiple opportunities for drug repurposing: Primary screen for NB-EBc1 cells (AID 1347095)
details: NB-EBc1 neuroblastoma viability, CellTiter-Glo luminescence, 48 h; series mostly up to 46 µM
Results filed as inconclusive are left out. Active and inactive are the calls of the source. Calls follow the shape of the dose curve; as a rule, active = well fitted cell-killing curve with a large enough effect; inconclusive = small, poorly fitted or top-dose-only effect; inactive = no such curve, though single readings can be large or run the other way.
Please answer using one outcome listed in active, inactive

Take a look at these entries with their results.
- molecule: "COc1ccc(C2=N[C@H](c3ccc(Cl)cc3)[C@H](c3ccc(Cl)cc3)N2C(=O)N2CCNC(=O)C2)c(OC(C)C)c1"
  className: "active"
- molecule: "Cc1cc(SCc2sc(-c3ccc(C(F)(F)F)cc3)nc2C)ccc1OCC(=O)O"
  className: "inactive"
- molecule: "CC(C)(N)C(=O)N[C@H](COCc1ccccc1)C(=O)N1CCC2(CC1)CN(S(C)(=O)=O)c1ccccc12"
  className: "inactive"
- molecule: "COc1ccc(CC2=NN3C([C@@H](CCc4ccccc4)[C@@H](C)O)=NC(C)C3C(=O)N2)cc1OC (stereo partly drawn)"
  className: "inactive"
- molecule: "CCOc1cc(C=C2C(=O)N(c3ccccc3)N=C2C)cc(Cl)c1OCC(=O)OC"
  className: "active"
- molecule: "O=C(O)COCCN1CCN(C(c2ccccc2)c2ccc(Cl)cc2)CC1 (stereo not drawn)"
  className: "inactive"

How did this test come out for `Nc1nc2[nH]cc(CCc3ccc(C(=O)N[C@@H](CCC(=O)O)C(=O)O)cc3)c2c(=O)[nH]1` ?
active

Further, for `C[C@]12CCC(=O)C=C1CC[C@@H]1[C@@H]2[C@@H](O)C[C@@]2(C)[C@H]1CC[C@]2(O)C(=O)CO` ?
inactive

Further, for CC(C)(C)NCC(O)c1ccc(O)c(CO)c1 (stereo not drawn) ?
inactive

Further, for `CN(C(=O)c1ccc(F)cc1C(F)(F)F)C1CCN(c2nnc(-c3ccnn3C)c3ccccc23)CC1` ?
inactive

Further, for `N[C@@H]1CONC1=O` ?
inactive

Further, for `NNCCc1ccccc1` ?
inactive

Further, for `Cc1cccc(-c2nn(C(=S)Nc3ccccc3)cc2-c2ccnc3ccccc23)n1` ?
inactive

----------
measurementNotes: qHTS of pediatric cancer cell lines to identify multiple opportunities for drug repurposing: Primary screen for Rh18 cells (AID 1347102); also: nearly all actives have a fitted effect of over 65% in size
details: Rh18 rhabdomyosarcoma viability, CellTiter-Glo luminescence, 48 h; series mostly up to 46 µM
Results filed as inconclusive are left out. Activity calls are given as the source filed them. Calls come from the whole dose curve; as a rule, active = well fitted cell-killing curve with a large enough effect; inconclusive = small, poorly fitted or top-dose-only effect; inactive = flat fitted curve, though single readings scatter.

- smilesNotation: "CCOC(=O)C1=C[C@]2(CC)CCCN3CCc4c(n1c1ccccc41)[C@@H]32"
  outcome: "inactive"
- smilesNotation: "O=c1n(CCCN2CCN(c3cccc(Cl)c3)CC2)nc2ccccn12"
  outcome: "inactive"
- smilesNotation: "CN(C(=O)c1ccc(F)cc1C(F)(F)F)C1CCN(c2nnc(-c3ccnn3C)c3ccccc23)CC1"
  outcome: "inactive"

Ref: PubChem BioAssay (NCATS)
